# Experimental Target: human JAK1 (aa 850-1154) catalytic domain (Homo sapiens, UniProt P23458)
# Construct: human JAK1 (aa 850-1154); GST (N)
# Sequence (P23458 850-1154): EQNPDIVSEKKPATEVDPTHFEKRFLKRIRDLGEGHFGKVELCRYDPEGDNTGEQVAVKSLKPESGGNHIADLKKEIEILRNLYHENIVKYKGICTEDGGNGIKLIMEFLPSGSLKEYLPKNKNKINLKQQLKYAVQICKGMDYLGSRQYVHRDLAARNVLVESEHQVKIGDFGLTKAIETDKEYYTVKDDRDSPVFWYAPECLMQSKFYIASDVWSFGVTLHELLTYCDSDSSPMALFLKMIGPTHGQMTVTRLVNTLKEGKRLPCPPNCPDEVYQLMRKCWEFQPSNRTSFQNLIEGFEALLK
# Test Description: In vitro JAK kinase assay (TR-FRET), JAK1
# Condition Notes: GST-fusion catalytic domain; ATP 3 μM; poly (GT)-Biotin 60 nM; 30 minutes at room temperature
pIC50: −log10 of the molar value.
Measurement Label: pIC50

- CCN(CC)C(=O)[C@H]1CCCN1c1ccnc(-c2cnc3ccc(F)cn23)n1: 6.00 to 7.00
- N#CCC(=O)N1CCC[C@@H](Nc2cc(N)nc(-c3cnc4ccc(F)cn34)n2)C1: > 7.00
- N#CCC(=O)N1CCC[C@@H](Nc2ccnc(-c3cnc4ccc(F)cn34)n2)C1: > 7.00
- O=C(CC(F)(F)F)N1CCC[C@@H](N(CC2CC2)c2ccnc(-c3cnc4ccc(F)cn34)n2)C1: < 6.00
- CC(C)(C)CNc1ccnc(-c2cnc3ccccn23)n1: 6.00 to 7.00
- C[C@H](Nc1ccnc(-c2cnc3ccc(C#N)cn23)n1)c1ccccc1: 6.00 to 7.00

Source: patent US20130216498A1
